Numbers sourced from BindingDB's records for doi:10.1016/0014-2999(93)90488-4.

Biological target: D(2) dopamine receptor (Homo sapiens)
Sequence (P14416 whole entry): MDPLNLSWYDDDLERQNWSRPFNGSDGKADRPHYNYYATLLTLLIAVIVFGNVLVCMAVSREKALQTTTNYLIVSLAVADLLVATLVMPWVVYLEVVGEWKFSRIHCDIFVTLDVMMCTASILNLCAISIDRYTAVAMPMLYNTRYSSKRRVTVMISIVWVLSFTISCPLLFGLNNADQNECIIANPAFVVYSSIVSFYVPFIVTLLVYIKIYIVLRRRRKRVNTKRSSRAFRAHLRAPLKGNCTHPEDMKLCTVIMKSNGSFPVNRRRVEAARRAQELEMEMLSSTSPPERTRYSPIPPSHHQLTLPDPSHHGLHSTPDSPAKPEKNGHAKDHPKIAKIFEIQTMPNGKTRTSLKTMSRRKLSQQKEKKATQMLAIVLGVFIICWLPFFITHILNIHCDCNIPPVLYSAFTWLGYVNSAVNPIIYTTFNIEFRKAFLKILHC
EXPERIMENTAL ENDPOINT: Ki (nM)
# output: bare number, implied unit nM

# COMPOUND, MEASURED ON, RESULT UNIT, Ki
measured = [
    ("CN1CCN(CCCN2c3ccccc3Sc3ccc(C(F)(F)F)cc32)CC1", "D(2) dopamine receptor (Homo sapiens)", "nM", 1.1),
    ("CCN(CC)C(=O)N[C@H]1C[C@@H]2c3cccc4[nH]cc(c34)C[C@H]2N(C)C1", "D(2) dopamine receptor (Homo sapiens)", "nM", 0.7),
    ("CCCN(CCC)C1C=Cc2c(OC)cccc2C1C (stereo unspecified)", "D(2) dopamine receptor (Homo sapiens)", "nM", 29.4),
    ("CCCN[C@@H]1CCc2c(OC)cccc2[C@@H]1C", "D(2) dopamine receptor (Homo sapiens)", "nM", 120),
    ("O=C(O)c1ccccc1C(=O)Nc1cccc2ccccc12 [NPA,(+)]", "D(2) dopamine receptor (Homo sapiens)", "nM", 291),
]

Pending compound:
Give recorded Ki. CN1C[C@@H](NC(=O)C(C)(C)C)CC2c3cccc4[nH]c(Cl)c(c34)C[C@H]21 (stereo partly specified)
0.9
